- Test system: MDA-MB-468
- assay method text: Antiproliferative activity against human MDA-MB-468 cells after 72 hrs by SRB assay
- Assay type: functional, cell-based
- condition label: MDA-MB-468, 72 h
pIC50: −log10 of the molar value.
observed property: pIC50

>  <molecule>
COc1ccc2nc(Cl)c(/C=C\c3ccc(F)cc3)cc2c1

>  <pIC50>
4.82

$$$$

[1] Fc1ccc(/C=C\c2cc3ccccc3nc2Cl)cc1
[2] CCN(CC)CCCC(C)Nc1ccnc2cc(Cl)ccc12 (stereo not drawn) [CHLOROQUINE]
Ask: Select one. Lower pIC50: 1 or 2 Give the label of your selection.
Reply: 2
